Provide the recorded pIC50 for the entries that follow.
assay-target: UniProt:P16116
assay-name: In vitro inhibition of partially purified calf lens aldose reductase
One number for each entry, as −log10 of the molar value.

Please review the entries below; each comes with its answer.
NC(=O)NC(=O)C1CCc2ccccc21 (stereo not drawn): 4.00
COc1cccc2c1CCCC21NC(=O)NC1=O (stereo not drawn): 5.00
COc1ccc2c(c1)CCC21NC(=O)NC1=O (stereo not drawn): 5.00
O=C1NC(=O)C2(CCOc3ccc(Cl)cc32)N1 (stereo not drawn): 7.00
NC(=O)C1(NC=O)CCc2ccccc21 (stereo not drawn): 4.00
O=C1NC(=O)C2(CCCCC2)N1: 4.00
O=C(O)C1Cc2ccccc2C1: 4.00
COc1cc2c(c(OC)c1OC)C1(CC2)NC(=O)NC1=O (stereo not drawn): 4.00

# batch size: 7; output pIC50 per entry
1. O=C1NC(=O)C2(CCOc3c(Cl)cccc32)N1 (stereo not drawn)
2. COc1ccc2c(c1)C1(CCS2)NC(=O)NC1=O (stereo not drawn)
3. O=C(O)C1CCSc2ccccc21 (stereo not drawn)
4. O=C1NC(=O)C2(CCS(=O)(=O)c3c(Cl)cc(Cl)cc32)N1 (stereo not drawn)
5. Cc1cc(C)c2c(c1)C1(CCO2)NC(=O)NC1=O (stereo not drawn)
6. COc1ccc2c(c1)C1(CCC2)NC(=O)NC1=O (stereo not drawn)
7. O=C1NCC2(CCOc3ccc(Cl)cc32)N1 (stereo not drawn)

[6.00, 5.00, 4.00, 7.00, 6.00, 4.00, 5.00]

----------
Species: Rattus norvegicus
assay-name: 50% reduction in sorbitol accumulation in isolated sciatic nerves incubated in the presence of high glucose concentration
Type: functional
condition-info: Sciatic nerve
measured-attribute: IC50 (µM)
One number for each entry, in µM.

# annotated cases, reported IC50 shown
O=C1NC(=O)[C@@]2(CCOc3ccc(F)cc32)N1 (stereo in doubt; 115): 1
O=C(O)CN1C(=O)c2cccc3cccc(c23)C1=O: 1000

Alright, here's another compound for you.
# query: IC50 of entry `O=C1NC(=O)[C@@]2(CCOc3ccc(Cl)cc32)O1`
10

----------
assay-target: Aldo-keto reductase family 1 member B1 (Bos taurus, UniProt P16116)
assay-name: In vitro inhibitory activity towards partially purified calf lens aldose reductase; value ranges from 10E-4 - 10E-6
measured-attribute: pIC50
Answers are plain numbers, as −log10 of the molar value.

Entry O=C(O)C1CCOc2ccc(F)cc21 (stereo unspecified) has what pIC50?
4.00

----------
So I've got a bunch of compounds here, and I need their pKa values.
assay-name: pKa in DMF/H2O was measured
Type: physicochemical

Provide the reported pKa of each entry below, same order.
1. O=C1NC(=O)[C@@]2(CCOc3ccc(F)cc32)N1 (stereo in doubt; 115)
2. O=C(O)C1CCOc2ccc(Cl)cc21 (stereo not given)
3. O=C1NC(=O)C(N2C(=O)c3cccc4cccc(c34)C2=O)N1 (stereo not given)
4. O=C(O)CN1C(=O)c2cccc3cccc(c23)C1=O
5. O=C1NC(=O)[C@@]2(CCOc3ccc(Cl)cc32)O1

[8.7, 4.9, 9.5, 4.8, 5.6]

----------
assay-target: Aldo-keto reductase family 1 member B1 (Bos taurus, UniProt P16116)
assay-name: In vitro inhibitory activity towards partially purified calf lens aldose reductase; value ranges from 10E-6 - 10E-7
For each record, write down the corresponding IC50.
Units required after the number.

Here are 2 compounds together with their reported answers.
O=C1NC(=O)C2(CCn3c(=O)ccc4cccc2c43)N1 (centres undefined): 1000 nM
O=C1NC(=O)C2(CCSc3ccc(F)cc32)N1 (centres undefined): 1000 nM

Record IC50 for all entries; do not skip any.
1. O=C1NC(=O)C2(CCSc3ccc(Br)cc32)N1 (centres undefined)
2. O=C1NC(=O)C2(CCOc3ccc(Br)cc32)N1 (centres undefined)
3. O=C1NC(=O)C2(CC[S+]([O-])c3ccc(F)cc32)N1 (centres undefined)
4. O=C1NC(=O)C2(CCS(=O)(=O)c3ccc(F)cc32)N1 (centres undefined)
5. O=C(O)CC1(CC(=O)O)CCCC1

["1000 nM", "1000 nM", "1000 nM", "1000 nM", "1000 nM"]

// each compound listed below needs its IC50
1. O=C1NC(=O)C2(CCSc3ccc(Cl)cc32)N1 (centres undefined)
2. O=C1NC(=O)C2(CCOc3c2ccc2ncccc32)N1 (centres undefined)

1000 nM
1000 nM
